Each record here notes measured fraction ligated.
B1: F1*; the commonest letter at each place (parent)
chain: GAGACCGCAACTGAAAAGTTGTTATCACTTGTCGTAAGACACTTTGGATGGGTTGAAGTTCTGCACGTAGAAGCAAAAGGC

Variants of: B1
Assay: fraction ligated after 30 min (ligated reads / total reads); higher = more ligase activity
Conditions: with F1*sub RNA substrate (template-directed ligation), 42 °C
I only need the number, thanks.

Consider the worked cases shown below.
GAGACCGCAACTGAAAAGTTGTTCTCACTTGTCGTAAGACACTTTGGTTGGGTTGAAGTTCTGCACGTAGAAGCAAAAGGC ... 0.0426
GAGACCGCAACTGAAAAGTTGTTATCACTGGTCGTAAGACACTTTGGATGGGTTGCAGTTCTGCACGTAGAAGCAAAAGGC ... 0.786
GAGACCGCAACTGAAAAGTTGTTATCACCTGTCGTAAGACACTTTAGATGGGTTGAAGTTCTGCACGTAGAAGCAAAAGGC ... 0.804
GAGACCGCAACTGAAAAGTTGTTATCACTTGTCGTAAGCCACATTGGATGGGTTGAAGTTCTGCACGTAGAAGCAAAAGGC ... 0.822
GAGACCGCAACTGAAAAGTTGTTATCACTAGTCGTAAGACACTTTGGATCGGTTGAAGTTCTGCACGTAGAAGCAAAAGGC ... 0.111
GAGACCGCAACTGAAAAGTTGTTATCATTTGTCGTAAGACATTTTGGATGGGTTGAAGTTCTGCACGTAGAAGCAAAAGGC ... 0.819
GAGACCGCAACTGAAAAGTTGTTATCAATTGTCGTGAGACACTTTGGATGGGTTGAAGTTCTGCACGTAGAAGCAAAAGGC ... 0.795
GAGACCGCAACTGAAAAGTTGTTATCACGTGTCGTAAGACACTTTGGACGGGTTGAAGTTCTGCACGTAGAAGCAAAAGGC ... 0.733

Given the variant GAGACCGCAACTGAAAAGTTGTTATCTCTTGTCGTAAGACACTTTGGATGGGTTGTAGTTCTGCACGTAGAAGCAAAAGGC , what is its reported fraction ligated?
0.792

Given the variant GAGACCGCAACTGAAAAGTTGTTATCACTTGTTGTAAGACACTTTGAATGGGTTGAAGTTCTGCACGTAGAAGCAAAAGGC , what is its reported fraction ligated?
0.836

Given the variant GAGACCGCAACTGAAAAGTTGTTCTCACTTGTCGTAAGACACTTTGGATTGGTTGAAGTTCTGCACGTAGAAGCAAAAGGC , what is its reported fraction ligated?
0.646

Given the variant GAGACCGCAACTGAAAAGTTGTTATCTCTTGTGGTAAGACACTTTGGATGGGTTGAAGTTCTGCACGTAGAAGCAAAAGGC , what is its reported fraction ligated?
0.838

Given the variant GAGACCGCAACTGAAAAGTTGTTATCACTAGTTGTAAGACACTTTGGATGGGTTGAAGTTCTGCACGTAGAAGCAAAAGGC , what is its reported fraction ligated?
0.849
